ASSAY SUMMARY: Particle size and PDI by dynamic light scattering (Malvern Zetasizer)
Assay type: physicochemical
CONDITIONS: lipid/no neutral lipid/CHOL/GM-020 NOF 60/0/36/4, N/P 3
OBSERVATION TYPE: Final size (nm)
# output: number + unit

Some entries whose results are on file:
COMPOUND	ASSAY VALUE
CCCCC/C=C\C/C=C\CCCCCCCCCCOCC(CN1CCCCC1)OCCO[C@H]1CC[C@@]2(C)C(=CC[C@H]3[C@@H]4CC[C@H]([C@H](C)CCCC(C)C)[C@@]4(C)CC[C@@H]32)C1 (stereo partly drawn)	113.4 nm
CCCCC/C=C\C/C=C\CCCCCCCCOCC(CN1CCCCC1)OCCO[C@H]1CC[C@@]2(C)C(=CC[C@H]3[C@@H]4CC[C@H]([C@H](C)CCCC(C)C)[C@@]4(C)CC[C@@H]32)C1 (stereo partly drawn)	89.47 nm

Consider the record given below.
Q: Name the recorded Final size (nm) of the compound listed here: CCCCC/C=C\C/C=C\CCCCCCCCCCOCC(CN1CCCC1C)OCCCOCCCO[C@H]1CC[C@@]2(C)C(=CC[C@H]3[C@@H]4CC[C@H]([C@H](C)CCCC(C)C)[C@@]4(C)CC[C@@H]32)C1 (stereo partly drawn)
Result: 125.1 nm

----------
ASSAY SUMMARY: pKa of the lipid by TNS fluorescence
Type: physicochemical
CONDITIONS: pKa
OBSERVATION TYPE: pKa
Numbers only.

Some entries whose results are on file:
COMPOUND	pKa
CCCCCCCC/C=C\CCCCCCCCOCOCC(CN1CCCCC1)OCCCOC(=O)CCC(=O)O[C@H]1CC[C@@]2(C)C(=CC[C@H]3[C@@H]4CC[C@H]([C@H](C)CCCC(C)C)[C@@]4(C)CC[C@@H]32)C1 (stereo partly drawn) [E0160]	6.05
CCCCCCCC/C=C\CCCCCCCCOCC(CN1CCC(OC)C1)OCCO[C@H]1CC[C@@]2(C)C(=CC[C@H]3[C@@H]4CC[C@H]([C@H](C)CCCC(C)C)[C@@]4(C)CC[C@@H]32)C1 (stereo partly drawn) [E0062]	6.45
CCCCC/C=C\C/C=C\CCCCCCCCOCC(CN1CCCC1)OCCOCCO[C@H]1CC[C@@]2(C)C(=CC[C@H]3[C@@H]4CC[C@H]([C@H](C)CCCC(C)C)[C@@]4(C)CC[C@@H]32)C1 (stereo partly drawn) [E0015]	7.39
CCCCCCCC/C=C\CCCCCCCCOCC(CN1CCCCC1)OCCO[C@H]1CC[C@@]2(C)C(=CC[C@H]3[C@@H]4CC[C@H]([C@H](C)CCCC(C)C)[C@@]4(C)CC[C@@H]32)C1 (stereo partly drawn) [E0061]	6.28
CCCCC/C=C\C/C=C\CCCCCCCCCCOCC(CN1CCCC1C)OCCO[C@H]1CC[C@@]2(C)C(=CC[C@H]3[C@@H]4CC[C@H]([C@H](C)CCCC(C)C)[C@@]4(C)CC[C@@H]32)C1 (stereo partly drawn) [E0070]	6.4

Batch: pKa for all items listed.
1. CCCCC/C=C\C/C=C\CCCCCCCCOCC(CN1CCCC(C)C1)OCCOCCO[C@H]1CC[C@@]2(C)C(=CCC3C2CC[C@@]2(C)C3CC[C@@H]2[C@H](C)CCCC(C)C)C1 (stereo partly drawn) [E0023]
2. CCCCC/C=C\C/C=C\CCCCCCCCOCC(CN1CCC(OC)C1)OCCCCO[C@H]1CC[C@@]2(C)C(=CCC3C2CC[C@@]2(C)C3CC[C@@H]2[C@H](C)CCCC(C)C)C1 (stereo partly drawn) [E0035]
3. CCCCC/C=C\C/C=C\CCCCCCCCOCC(CN1CC[C@@H]2CCCC[C@@H]2C1)OCCOCCO[C@H]1CC[C@@]2(C)C(=CCC3C2CC[C@@]2(C)C3CC[C@@H]2[C@H](C)CCCC(C)C)C1 (stereo partly drawn) [E0021]
4. CCCCC/C=C\C/C=C\CCCCCCCCOCC(CN1CCCCC1)OCCOCCNC(=O)O[C@H]1CC[C@@]2(C)C(=CCC3C2CC[C@@]2(C)C3CC[C@@H]2[C@H](C)CCCC(C)C)C1 (stereo partly drawn) [E0054]
5. CCCCCCCC/C=C\CCCCCCCCOCC(CN1CCCC1C)OCCCOCCCO[C@H]1CC[C@@]2(C)C(=CC[C@H]3[C@@H]4CC[C@H]([C@H](C)CCCC(C)C)[C@@]4(C)CC[C@@H]32)C1 (stereo partly drawn) [E0094]
6. CCCCC/C=C\C/C=C\CCCCCCCCOC[C@@H](CN1CCC[C@H]1C)OCCOCCO[C@H]1CC[C@@]2(C)C(=CCC3C2CC[C@@]2(C)C3CC[C@@H]2[C@H](C)CCCC(C)C)C1 (stereo partly drawn) [E0052]
7. CCCCC/C=C\C/C=C\CCCCCCCCOCC(CN1CCCCC1)OC(=O)CCC(=O)O[C@H]1CC[C@@]2(C)C(=CCC3C2CC[C@@]2(C)C3CC[C@@H]2[C@H](C)CCCC(C)C)C1 (stereo partly drawn) [E0036]

Result:
[5.85, 5.93, 5.13, 6.58, 5.91, 6.95, 5.74]

Batch: pKa for all items listed.
1. CCCCC/C=C\C/C=C\CCCCCCCCOCC(CN1C(C)CCC1C)OCCOCCO[C@H]1CC[C@@]2(C)C(=CCC3C2CC[C@@]2(C)C3CC[C@@H]2[C@H](C)CCCC(C)C)C1 (stereo partly drawn) [E0046]
2. CCCCCCCC/C=C\CCCCCCCCOCC(CN1CCCC1C)OCCO[C@H]1CC[C@@]2(C)C(=CC[C@H]3[C@@H]4CC[C@H]([C@H](C)CCCC(C)C)[C@@]4(C)CC[C@@H]32)C1 (stereo partly drawn) [E0066]

Result:
1. 5.75
2. 6.5

Q: Name the recorded pKa of the compound listed here: CCCCCCCC/C=C\CCCCCCCCOCC(CN1CC[C@@H]2CCCC[C@H]2C1)OCCOCCO[C@H]1CC[C@@]2(C)C(=CC[C@H]3[C@@H]4CC[C@H]([C@H](C)CCCC(C)C)[C@@]4(C)CC[C@@H]32)C1 (stereo partly drawn) [E0120]
Result: 5.48
